Taken from ChEMBL document CHEMBL3421619.

assay: Displacement of [32P]NAADP from NAADP receptor in Strongylocentrotus purpuratus egg homogenates incubated for 90 mins by liquid scintillation counting method
pIC50: −log10 of the molar value.
quantity: pIC50

[
  {
    "smiles-text": "CC(=O)Nc1cc(C(=O)O)c[n+]([C@H]2O[C@@H](COP(=O)(O)OP(=O)([O-])OC[C@H]3O[C@@H](n4cnc5c(N)ncnc54)[C@H](OP(=O)(O)O)[C@@H]3O)[C@H](O)[C@@H]2O)c1",
    "quantity": "pIC50",
    "observed-result": 7.82
  }
]

(A) CSc1cc(C(=O)O)c[n+]([C@H]2O[C@@H](COP(=O)(O)OP(=O)([O-])OC[C@H]3O[C@@H](n4cnc5c(N)ncnc54)[C@H](OP(=O)(O)O)[C@@H]3O)[C@H](O)[C@@H]2O)c1
(B) [N-]=[N+]=Nc1nc2c(N)ncnc2n1[C@@H]1O[C@H](COP(=O)([O-])OP(=O)(O)OC[C@@H]2O[C@H]([n+]3cccc(C(=O)O)c3)[C@@H](O)[C@H]2O)[C@@H](O)[C@H]1OP(=O)(O)O
(C) Nc1ncnc2c1nc(Br)n2[C@@H]1O[C@H](COP(=O)([O-])OP(=O)(O)OC[C@@H]2O[C@H]([n+]3cccc(C(=O)O)c3)[C@@H](O)[C@H]2O)[C@@H](O)[C@H]1OP(=O)(O)O
Exercise: Your job: order these 3 records by pIC50, ascending. API: response body holds the labels in the requested order.
Solution: C, A, B
